# STUDY_SYSTEM: glucose-6-phosphate dehydrogenase-6-phosphogluconolactonase (PfGluPho), Plasmodium falciparum 3D7
# ASSAY_EXPLANATION: PfGluPho enzyme inhibitors, SAR follow-up, biochemical, fluorescence intensity, dose response, set 3 (AID 602131)
# REPORTED_CONDITIONS: recombinant PfGluPho, NADPH resazurin-diaphorase fluorescence
Activity calls are given as the source filed them.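 Rule for the calls: active = IC50 at or below 20 µM; inactive = the rest.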
Outcomes: active, inactive

COMPOUND	CLASS_NAME
NCCNC(=O)c1ccc2c(c1)NC(=O)c1ccccc1S2	inactive
CCN(CC)CCCC(C)Nc1ccnc2cc(Cl)ccc12 (centres undefined)	inactive
CCC(C)N(CCNC(=O)c1ccc2c(c1)NC(=O)c1ccccc1S2)C1CCCCC1 (centres undefined)	active
O=C(NCCNC1CCCCC1)c1ccc2c(c1)NC(=O)c1ccccc1S2	inactive
CCC(C)N1CCCC1CNC(=O)c1ccc2c(c1)NC(=O)c1ccccc1S2 (centres undefined)	active
CCN1CCCC1CNC(=O)c1ccc2c(c1)NC(=O)C(Cc1ccccc1F)S2 (centres undefined)	inactive
CCN1CCC[C@H]1CNC(=O)c1ccc2c(c1)NC(=O)c1ccccc1S2	inactive
O=C(NCCN1CCOCC1)c1ccc2c(c1)NC(=O)c1ccccc1S2	inactive
CN(C)c1ccccc1CNC(=O)c1ccc2c(c1)NC(=O)/C(=C/c1ccccc1F)S2	inactive
CCN1CCCC1CNC(=O)c1ccc2c(c1)NC(=O)/C(=C/c1ccc3ccccc3c1)S2 (centres undefined)	active
NC1CCN(C(=O)c2ccc3c(c2)NC(=O)c2ccccc2S3)C1 (centres undefined)	inactive
CCN(CC)CCNC(=O)c1ccc2c(c1)NC(=O)/C(=C/c1ccccc1F)S2	active
CCN1CCC[C@@H]1CNC(=O)c1ccc2c(c1)NC(=O)/C(=C/c1ccccc1F)S2	active
CCN1CCC[C@H]1CNC(=O)c1ccc2c(c1)NC(=O)/C(=C/c1ccccc1F)S2	active
O=C(NCCN1CCCCC1)c1ccc2c(c1)NC(=O)c1ccccc1S2	inactive
CC(C)(C)OC(=O)N1CCCC1CNC(=O)c1ccc2c(c1)NC(=O)/C(=C/c1ccccc1F)S2 (centres undefined)	inactive
CCN1CCC[C@@H]1CNC(=O)c1ccc2c(c1)NC(=O)c1ccccc1S2	active
NC1CCN(C(=O)c2ccc3c(c2)NC(=O)/C(=C/c2ccccc2F)S3)C1 (centres undefined)	inactive
CCN1CCCC1CNC(=O)c1ccc2c(c1)NC(=O)/C(=C/c1ccc(F)cc1)S2 (centres undefined)	active

These entries and their values trace back to PubChem BioAssay AID602131.
